target: Wee1 kinase domain (Homo sapiens, UniProt P30291); construct: Wee1 kinase domain was purchased from Carna (catalog #05-177); purchased Carna 05-177; test: Wee1 Kinase Biochemical Assay (ADP-Glo); conditions: Wee1 kinase domain, 15 uM ATP, ADP-Glo
Sequence (P30291 299-569 limits assumed): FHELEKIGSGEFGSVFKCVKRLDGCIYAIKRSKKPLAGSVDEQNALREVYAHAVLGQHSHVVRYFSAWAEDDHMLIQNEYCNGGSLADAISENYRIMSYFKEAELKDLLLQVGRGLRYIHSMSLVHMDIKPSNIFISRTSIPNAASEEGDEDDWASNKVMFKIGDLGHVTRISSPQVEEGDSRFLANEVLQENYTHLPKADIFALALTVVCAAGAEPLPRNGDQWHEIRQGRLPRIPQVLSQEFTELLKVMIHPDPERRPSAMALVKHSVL
pIC50: −log10 of the molar value.
Documented pIC50 across a set of compounds

>  <Compound>
CC1(C)C[C@@H]2N(c3cccc(N=S(C)(C)=O)n3)c3nc(Nc4ccc(O[C@H]5CCNC5)cc4)ncc3[C@]2(C)CO1 (single isomer, unassigned)

>  <Result>
6.00 to 7.00

$$$$
>  <Compound>
CNCc1cccc(N2c3nc(Nc4cnn(C(C)(C)C)c4)ncc3[C@@]3(C)COC(C)(C)C[C@@H]23)n1 (single isomer, unassigned)

>  <Result>
> 8.00

$$$$
>  <Compound>
CC1(C)C[C@H]2N(c3cccc(N=S(C)(C)=O)n3)c3nc(Nc4ccn([C@H]5CCOC5)c(=O)c4)ncc3[C@@]2(C)CO1 (single isomer, unassigned)

>  <Result>
> 8.00

$$$$
>  <Compound>
CN1CCC(n2cc(Nc3ncc4c(n3)N(c3cccc(N=S(C)(C)=O)n3)[C@@H]3CC(C)(C)OC[C@]43C)cn2)C1 (some centres unmarked)

>  <Result>
> 8.00

$$$$

Moving on to the next compound.
Looking up Cc1cc(Nc2ncc3c(n2)N(c2cccc(N=S(C)(C)=O)n2)[C@H]2CC(C)(C)OC[C@@]32C)ccc1[C@H]1CCNC1 (single isomer, unassigned) , I see its pIC50 listed as 7.00 to 8.00

----------
Test system: phosphorylation of Cdc2 Y15 (Wee1 substrate) in A427 cells
Test: Phosphorylated Cdc2 MSD Electrochemiluminescence Assay
Assay type: cell-based
Conditions: Homo sapiens, A-427, pCDC2 MSD
Experimental: Phosphorylated Cdc2 MSD Electrochemiluminescence Assay The effect of Wee1 inhibitors on cellular phosphorylation of the Wee1 substrate Cdc2 was determined using the following protocol: […] To detect phosphorylation of Cdc2 Y15, 30 μL of capture antibody solution (CST catalog #9116S 1:200) was added into each well of the MSD plate (MSD catalog #L15XB-6), sealed and incubated at 4° C. with shaking (450 rpm) overnight. […] The electrochemiluminescence signal was measured on a MESO SECTOR S600 plate reader. […]
# IC50 per entry

# annotated cases, reported IC50 shown
>  <Compound>
CN1CCC(n2cc(Nc3ncc4c(n3)N(c3cccc(C(C)(C)O)n3)[C@@H]3CC(C)(C)OC[C@]43C)cn2)CC1 (single isomer, unassigned)

>  <Quantity measured>
IC50

>  <Result>
100 to 1000 nM

$$$$
>  <Compound>
CNCc1cccc(N2c3nc(Nc4ccccc4)ncc3[C@@]3(C)COC(C)(C)C[C@@H]23)n1 (single isomer, unassigned)

>  <Quantity measured>
IC50

>  <Result>
100 to 1000 nM

$$$$
>  <Compound>
CC1(C)C[C@H]2N(c3cccc(N=S(C)(C)=O)n3)c3nc(Nc4cnn(C5COC5)c4)ncc3[C@@]2(C)CO1 (single isomer, unassigned)

>  <Quantity measured>
IC50

>  <Result>
100 to 1000 nM

$$$$
>  <Compound>
C[C@H]1COC(=O)N1c1cccc(N2c3nc(Nc4ccc(N5C[C@H]6C[C@@H]5CN6C)cc4)ncc3[C@@]3(C)COC(C)(C)C[C@@H]23)n1 (single isomer, unassigned)

>  <Quantity measured>
IC50

>  <Result>
100 to 1000 nM

$$$$
>  <Compound>
CN1CCC(c2cc(Nc3ncc4c(n3)N(c3cccc(N=S(C)(C)=O)n3)[C@@H]3CC(C)(C)OC[C@]43C)on2)CC1 (single isomer, unassigned)

>  <Quantity measured>
IC50

>  <Result>
100 to 1000 nM

$$$$

Please fill in: IC50 reported for CNCc1cccc(N2c3nc(Nc4ccc([C@@H]5CNC(=O)C5)cc4)ncc3[C@@]3(C)COC(C)(C)C[C@@H]23)n1 (single isomer, unassigned) = 100 to 1000 nM

// field: IC50; key: CNCc1cccc(N2c3nc(Nc4ccc([C@H]5CCOC5)cc4)ncc3[C@@]3(C)COC(C)(C)C[C@@H]23)n1 (single isomer, unassigned) ; value = < 100 nM

# IC50 (compound: Cc1cc(Nc2ncc3c(n2)N(c2cccc(N4C(=O)OC[C@@H]4C)n2)[C@@H]2CC(C)(C)OC[C@]32C)ccc1N1C[C@H]2C[C@@H]1CN2C (single isomer, unassigned) ) is 100 to 1000 nM

The compound identified as C[C@H]1COC(=O)N1c1cccc(N2c3nc(Nc4ccc(N5CCN(C)CC5)nn4)ncc3[C@@]3(C)COC(C)(C)C[C@@H]23)n1 registered its IC50 at 100 to 1000 nM

Item: CNCc1cccc(N2c3nc(Nc4ccc([C@@H]5CCC(=O)N5C)nc4)ncc3[C@@]3(C)COC(C)(C)C[C@@H]23)n1 (single isomer, unassigned) | IC50: 100 to 1000 nM

Measured IC50, CN1C[C@@H]2C[C@H]1CN2c1ccc(Nc2ncc3c(n2)N(c2cccc(N=S(C)(C)=O)n2)[C@@H]2CC(C)(C)OC[C@]32C)cc1 (single isomer, unassigned) : < 100 nM

----------
biological target: Wee1 kinase domain (Homo sapiens); construct: Wee1 kinase domain was purchased from Carna (catalog #05-177); purchased Carna 05-177; assay: Wee1 Kinase Biochemical Assay (ADP-Glo); conditions: Wee1 kinase domain, 15 uM ATP, ADP-Glo
pIC50: −log10 of the molar value.
Listing of recorded pIC50 by entry.

>  <Compound>
C[C@H]1COC(=O)N1c1cccc(N2c3nc(Nc4ccc(N5CCN(C)CC5)cc4)ncc3[C@]3(C)COC(C)(C)C[C@H]23)n1 (single isomer, unassigned)

>  <Target of assay>
Wee1 kinase domain (Homo sapiens)

>  <pIC50>
> 8.00

$$$$
>  <Compound>
CNCc1cccc(N2c3nc(Nc4ccc([C@@H]5CCC(=O)N5C)nc4)ncc3[C@@]3(C)COC(C)(C)C[C@@H]23)n1 (single isomer, unassigned)

>  <Target of assay>
Wee1 kinase domain (Homo sapiens)

>  <pIC50>
> 8.00

$$$$
>  <Compound>
CNCc1cccc(N2c3nc(Nc4ccc(N5CCN(C)CC5)cc4)ncc3[C@]3(C)COC(C)(C)C[C@H]23)n1 (single isomer, unassigned)

>  <Target of assay>
Wee1 kinase domain (Homo sapiens)

>  <pIC50>
7.00 to 8.00

$$$$
>  <Compound>
CNCc1cccc(N2c3nc(Nc4ccc([C@H]5CNC(=O)C5)cc4)ncc3[C@@]3(C)COC(C)(C)C[C@@H]23)n1 (single isomer, unassigned)

>  <Target of assay>
Wee1 kinase domain (Homo sapiens)

>  <pIC50>
> 8.00

$$$$

# compound Cc1cc(Nc2ncc3c(n2)N(c2cccc(N=S(C)(C)=O)n2)[C@H]2CC(C)(C)OC[C@@]32C)ccc1[C@H]1COCCN1 (single isomer, unassigned) ; its pIC50 = 7.00 to 8.00

----------
Collected pIC50 values appear next to each entry.
target: Wee1 kinase domain (Homo sapiens, UniProt P30291); construct: Wee1 kinase domain was purchased from Carna (catalog #05-177); purchased Carna 05-177; test: Wee1 Kinase Biochemical Assay (ADP-Glo); settings: class symbols; 1 nM Wee1 enzyme, 15 uM ATP, 4 hours at 25° C.
pIC50: −log10 of the molar value.

>  <Molecule>
CC1(C)C[C@@H]2N(c3cccc(C4CCNCC4)n3)c3nc(Nc4ccc(N5CCOCC5)cc4)ncc3[C@]2(C)CO1 (single isomer, unassigned)

>  <Result>
6.00 to 7.00

$$$$
>  <Molecule>
CC1(C)CC2N(c3cccc([C@@H]4COCCN4)n3)c3nc(Nc4ccc(N5CCOCC5)cc4)ncc3C2(C)CO1 (stereo in doubt)

>  <Result>
7.00 to 8.00

$$$$

Continue with the next molecule.
Entry CNCc1cccc(N2c3nc(Nc4ccc(N5CCOC[C@H]5C)cc4)ncc3[C@]3(C)COC(C)(C)C[C@H]23)n1 (single isomer, unassigned) , pIC50 reported as 6.00 to 7.00

----------
Collected IC50 values appear next to each entry.
Molecular target: Wee1 kinase domain (Homo sapiens, UniProt P30291)
Construct: Wee1 kinase domain was purchased from Carna (catalog #05-177); purchased Carna 05-177
Assay: Wee1 Kinase Biochemical Assay (ADP-Glo)
Settings: Wee1 kinase domain, 15 uM ATP, ADP-Glo
Protocol: Wee1 Kinase Biochemical Assay Protocol Wee1 kinase domain was purchased from Carna (catalog #05-177). Wee1 kinase activity was determined with Poly(Lys,Tyr 4:1) hydrobromide as a substrate (Sigma-Aldrich) and by measuring ADP production using the ADP-Glo Kinase Assay kit (Promega) following the manufacturer's instructions. […] The ADP-Glo signal was measured using the Envision plate reader and the percentage inhibition of kinase activity calculated for each inhibitor tested. […]

The examples below pair each entry with its known result.
>  <Molecule>
CNCc1cccc(N2c3nc(Nc4ccc(C5(C)COC5)cc4)ncc3[C@]3(C)COC(C)(C)C[C@H]23)n1 (single isomer, unassigned) [Example 82]

>  <IC50>
< 10 nM

$$$$
>  <Molecule>
CNCc1cccc(N2c3nc(Nc4ccc(N5CCOCC5)cc4)ncc3[C@@]3(C)COC(C)(C)C[C@@H]23)n1 (single isomer, unassigned) [Example 5]

>  <IC50>
< 10 nM

$$$$

// recorded IC50 for Cc1cc(Nc2ncc3c(n2)N(c2cccc(N4C(=O)OC[C@@H]4C)n2)[C@H]2CC(C)(C)OC[C@@]32C)ccc1O[C@@H]1CCN(C)C1 (single isomer, unassigned) [Example 346] : 10 to 100 nM
